- TARGET_UNDER_TEST: Renin (Homo sapiens)
- Sequence (P00797 whole entry): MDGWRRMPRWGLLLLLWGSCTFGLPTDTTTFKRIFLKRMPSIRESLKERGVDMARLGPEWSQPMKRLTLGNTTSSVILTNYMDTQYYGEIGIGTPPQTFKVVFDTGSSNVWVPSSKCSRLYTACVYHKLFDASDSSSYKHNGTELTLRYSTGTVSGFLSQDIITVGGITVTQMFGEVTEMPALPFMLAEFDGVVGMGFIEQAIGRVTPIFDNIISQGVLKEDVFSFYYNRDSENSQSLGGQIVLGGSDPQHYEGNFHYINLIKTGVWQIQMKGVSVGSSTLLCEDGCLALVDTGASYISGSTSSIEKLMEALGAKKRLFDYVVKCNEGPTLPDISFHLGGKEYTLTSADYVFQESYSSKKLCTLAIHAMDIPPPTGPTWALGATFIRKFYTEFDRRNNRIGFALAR
MEASURED_QUANTITY: IC50 (pM)
One number for each entry, in pM.

Answered cases to consult:
[[record]]
compound = "CCCCNC(=O)C(CC(=O)C(CC1CCCCC1)NC(=O)C(Cc1cnc[nH]1)NC(=O)C(Cc1ccccc1)CS(=O)(=O)C(C)(C)C)C(C)C (centres undefined)"
target_under_test = "Renin (Homo sapiens)"
measured_quantity = "IC50"
result_units = "pM"
recorded_value = 700

[[record]]
compound = "Cc1cc(Cl)c(OCCOc2ccc(C3=C(C(=O)N(Cc4cccc(C)c4C)C4CC4)C4CNCC(C3)N4)cc2)c(Cl)c1 (centres undefined)"
target_under_test = "Renin (Homo sapiens)"
measured_quantity = "IC50"
result_units = "pM"
recorded_value = 160

[[record]]
compound = "CC(C)(C)S(=O)(=O)CC(Cc1ccccc1)C(=O)NC(Cc1cnc[nH]1)C(=O)NC(CC1CCCCC1)C(O)C(O)C1CC1 (centres undefined)"
target_under_test = "Renin (Homo sapiens)"
measured_quantity = "IC50"
result_units = "pM"
recorded_value = 1000


Read the next record carefully.
compound COc1ccccc1COCCCOc1ccc(N2C(=O)CNCC2COC2=CC3C(=CC=CN3CCCO)C=C2)cc1 (centres undefined) , IC50 observed: 37000
